System: SR
Measurement Notes: NCI tumour cell line growth inhibition, 48 h
The source made the active and inactive calls. No stated cut-off is given here; in the data, active = GI50 up to about 1.1 µM and inactive = higher.
Test Readout: GI50

[[record]]
compound = "CCCCCCCCCCCCCCCCCC(=O)OCC(COC(=O)CCCN)OC(=O)CCCN (centres undefined)"
result = "23.6 µM (inactive)"

[[record]]
compound = "N#Cc1cc([N+](=O)[O-])ccc1NC(=O)/C(=N/N)C(C(=O)c1ccc(Cl)c(Cl)c1)C1OC(=O)c2ccccc21 (centres undefined)"
result = "54.2 µM (inactive)"

[[record]]
compound = "CC(=O)C1=C(C)N(c2ccc(C)cc2)C2(O)C=CC(=O)C3C(=O)N(c4ccccc4)C(=O)C132 (centres undefined)"
result = "2.94 µM (inactive)"

[[record]]
compound = "CNC(=O)C1CCc2nnc(-c3ccccc3)n21 (centres undefined)"
result = "> 100 µM (inactive)"

[[record]]
compound = "O=[N+]([O-])c1cc([N+](=O)[O-])c(C(Cl)C(Cl)c2ccccc2)cc1C(Cl)C(Cl)c1ccccc1 (centres undefined)"
result = "3.18 µM (inactive)"

[[record]]
compound = "CCCCCCCCCC1(N=[N+]=[N-])C(=O)c2ccccc2N(C)C1=O (centres undefined)"
result = "35.4 µM (inactive)"

[[record]]
compound = "Cc1nc2cn3c(c2c(=O)[nH]1)CCCCC3"
result = "> 100 µM (inactive)"

[[record]]
compound = "CO/N=C\\c1ccc2c(c1)Sc1ccccc1O2"
result = "23.4 µM (inactive)"

[[record]]
compound = "N/C(CSCCSC/C(N)=N/O)=N\\O"
result = "> 100 µM (inactive)"


###

Test system: ACHN
Measurement Notes: NCI tumour cell line growth inhibition, 48 h
Activity calls are given as the source filed them. No stated cut-off is given here; in the data, active = GI50 up to about 1.1 µM and inactive = higher.
Outcomes: label 1 (active), label 0 (inactive)

[[record]]
compound = "Brc1ccc(N2C[N+](c3ccc(Br)cc3)=NC(c3ccccc3)=N2)cc1.[O-][Cl+3]([O-])([O-])[O-]"
class_label = "label 0"

[[record]]
compound = "c1ccc2sc(C3(N4CCCCC4)CCCCCC3)cc2c1"
class_label = "label 0"

[[record]]
compound = "CSCCC(N)P(C)(=O)O (stereo not drawn)"
class_label = "label 0"

[[record]]
compound = "CN(C)CN1C(=O)S/C(=C2\\C(=O)N(CN(C)C)c3ccccc32)C1=O"
class_label = "label 0"

[[record]]
compound = "CCOP(=Nc1ccc(N(C)C)cc1)(OCC)OCC"
class_label = "label 0"

[[record]]
compound = "O=C(O)c1cc2ccccc2oc1=O"
class_label = "label 0"

[[record]]
compound = "CCCC(CC)c1c(O)c(O)c(C(CC)CCC)c(C(CC)CCC)c1C(CC)CCC (stereo not drawn)"
class_label = "label 0"

[[record]]
compound = "N#Cc1c(N)oc(-c2ccc([N+](=O)[O-])cc2)c1C#N"
class_label = "label 0"

[[record]]
compound = "CC1(C)CCCCC1/C=C/C(CC(O)(C(F)(F)F)C(F)(F)F)=N\\Nc1ccc([N+](=O)[O-])cc1[N+](=O)[O-] (stereo not drawn)"
class_label = "label 1"

[[record]]
compound = "O=C1c2ccccc2C(=O)N1n1c(Cc2ccc([N+](=O)[O-])cc2)n[nH]c1=O"
class_label = "label 0"

[[record]]
compound = "COC1=C(OC)C(=O)C(Cc2c(C)nc3sc(C)cn23)=C(C)C1=O"
class_label = "label 0"

[[record]]
compound = "CSC1=NC(C(N)=O)C(N)N1C (stereo not drawn)"
class_label = "label 0"

[[record]]
compound = "Cn1c(=O)n(C2(C)CSC2)c2ccccc21"
class_label = "label 0"

